Field: Activity. Provide a value for each of the compounds that follow.
Tested on: Nucleic Acid
protocol.notes: Binding affinity to Escherichia coli 23S rRNA G2553C mutant assessed as increase in classical-state occupancy by tRNA at 20 uM by smFRET
Type: nucleic-acid assay
study.conditions: MRE600
Answer format: number, then unit.

Would you mind telling me what Activity value was observed for CN[C@@H]1[C@@H](O)[C@@H](O[C@@H]2[C@@H](O)[C@H](O[C@H]3O[C@H]([C@@H](C)N)CC[C@H]3N)[C@@H](N)C[C@H]2N)OC[C@]1(C)O ?
18%

If you can, please state the reported Activity value of CN[C@@H]1[C@@H](O)[C@@H](O[C@@H]2[C@@H](O)[C@H](O[C@H]3O[C@H]([C@@H](C)NC)CC[C@H]3N)[C@@H](N)C[C@H]2N)OC[C@]1(C)O .
14%

Please report the recorded Activity for NC[C@@H]1O[C@H](O[C@H]2[C@@H](O)[C@H](O[C@@H]3[C@@H](O)[C@H](N)C[C@H](N)[C@H]3O[C@H]3O[C@H](CO)[C@@H](O)[C@H](O)[C@H]3N)O[C@@H]2CO)[C@H](N)[C@@H](O)[C@@H]1O .
12%

Tell me the measured Activity of NC[C@H]1O[C@H](O[C@H]2[C@H](O)[C@@H](O[C@H]3O[C@H](CO)[C@@H](O)[C@H](N)[C@H]3O)[C@H](N)C[C@@H]2N)[C@H](N)[C@@H](O)[C@@H]1O , please.
25%

Now take the following compound into account.
Which measured Activity value corresponds to NC[C@@H]1O[C@@H](O[C@H]2[C@H](O)[C@@H](O[C@H]3O[C@H](CO)[C@@H](O)[C@H](N)[C@H]3O)[C@H](N)C[C@@H]2N)[C@@H](O)[C@H](O)[C@H]1O ?
25%
